These entries and their values trace back to paper PMC7819943.

# TGT: OsSMF1 (Oryza sativa, UniProt Q6ZLB0 1-436)
# Sequence: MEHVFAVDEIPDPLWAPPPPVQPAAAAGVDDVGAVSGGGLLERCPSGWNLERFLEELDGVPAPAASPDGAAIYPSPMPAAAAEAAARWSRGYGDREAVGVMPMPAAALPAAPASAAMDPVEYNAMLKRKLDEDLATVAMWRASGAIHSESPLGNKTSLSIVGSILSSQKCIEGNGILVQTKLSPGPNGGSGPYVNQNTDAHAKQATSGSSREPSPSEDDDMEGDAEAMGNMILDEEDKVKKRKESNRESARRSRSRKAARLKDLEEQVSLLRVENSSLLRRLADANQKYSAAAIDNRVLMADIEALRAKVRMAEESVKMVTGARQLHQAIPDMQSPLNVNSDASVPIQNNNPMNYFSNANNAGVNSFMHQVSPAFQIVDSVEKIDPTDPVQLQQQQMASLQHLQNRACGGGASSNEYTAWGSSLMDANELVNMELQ
# TEST_SUMMARY: protein-binding microarray (RPBM); PBS, 2% BSA, 51.3 ng/ul salmon testes DNA, 50 uM zinc acetate, 200 nM TF, 25 C, 1 h; high values mean tight binding
# MEASUREMENT_PARAMETERS: protein: recombinant; tags: N-terminal polyhistidine and DsRed monomer fusion (pET32a); chain copies: 2; label: CyDye5-dUTP incorporated in the synthesized complementary strand; 3' TTTTT single-stranded linker to array surface; dsDNA, one strand shown
In all, about 39,000 sequences were measured (“fluorescence intensity (a.u.)”: median about 4,300, highest 2% from about 39,000 on). Only a selection was taken, and the highest values are over-represented in it overall.
Reported binding signal values are given for each entry in this list.

Check out these entries, answers already filled in.
[
  {
    "CHAIN_SEQUENCE": "TCTGATATGGCATTGACGTGACACTTACGTGGCAATTCGACGGAGTCACCTAGTGCAG",
    "DATA_VALUE": "12500 fluorescence intensity (a.u.)"
  },
  {
    "CHAIN_SEQUENCE": "ACCAGTCCCAAATCAAACAGTCCTACTAGTTGCATTTTGTCGGAGTCACCTAGTGCAG",
    "DATA_VALUE": "47200 fluorescence intensity (a.u.)"
  },
  {
    "CHAIN_SEQUENCE": "GTGGCATTGACGTGGCGCTTACGTGTCAATTCTACTCCGGCGGAGTCACCTAGTGCAG",
    "DATA_VALUE": "44200 fluorescence intensity (a.u.)"
  }
]

-- ask I'm curious: which binding signal was measured for AGTGCCTATGTGGCGTTGACGTGGCGCTTACGTGGCAATTCGGAGTCACCTAGTGCAG tested on OsSMF1 (Oryza sativa, UniProt Q6ZLB0 1-436)?
-- reply 27500 fluorescence intensity (a.u.)

-- ask I'm curious: which binding signal was measured for AGTTCTACTTGAGTTATGTAATGAATCACAATGCCTTCATCGGAGTCACCTAGTGCAG tested on OsSMF1 (Oryza sativa, UniProt Q6ZLB0 1-436)?
-- reply 53400 fluorescence intensity (a.u.)

-- ask I'm curious: which binding signal was measured for CAAGACGGATTTATTAAGCCTAATTAATCTATCATTAGCGCGGAGTCACCTAGTGCAG tested on OsSMF1 (Oryza sativa, UniProt Q6ZLB0 1-436)?
-- reply 4110 fluorescence intensity (a.u.)

-- ask I'm curious: which binding signal was measured for AATGGATCTAGACTATATCTATCTAGATTCATTAGTATCACGGAGTCACCTAGTGCAG tested on OsSMF1 (Oryza sativa, UniProt Q6ZLB0 1-436)?
-- reply 45400 fluorescence intensity (a.u.)

---

Reported binding signal values are given for each entry in this list.
# TGT: OsSMF1 (Oryza sativa, UniProt Q6ZLB0 1-436)
# Sequence: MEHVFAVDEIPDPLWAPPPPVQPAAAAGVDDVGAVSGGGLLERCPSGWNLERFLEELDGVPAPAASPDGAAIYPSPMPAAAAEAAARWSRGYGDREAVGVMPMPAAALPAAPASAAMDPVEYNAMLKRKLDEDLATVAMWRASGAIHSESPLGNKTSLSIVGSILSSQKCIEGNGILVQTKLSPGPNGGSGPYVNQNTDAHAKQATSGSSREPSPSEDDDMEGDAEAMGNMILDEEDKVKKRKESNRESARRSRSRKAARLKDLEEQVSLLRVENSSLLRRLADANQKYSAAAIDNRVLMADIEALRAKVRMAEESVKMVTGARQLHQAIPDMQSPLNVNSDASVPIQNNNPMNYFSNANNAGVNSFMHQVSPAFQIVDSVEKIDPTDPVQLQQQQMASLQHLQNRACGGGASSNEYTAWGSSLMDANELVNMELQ
# TEST_SUMMARY: protein-binding microarray (RPBM); PBS, 2% BSA, 51.3 ng/ul salmon testes DNA, 50 uM zinc acetate, 200 nM TF, 25 C, 1 h; high values mean tight binding
# MEASUREMENT_PARAMETERS: protein: recombinant; tags: N-terminal polyhistidine and DsRed monomer fusion (pET32a); chain copies: 2; label: CyDye5-dUTP incorporated in the synthesized complementary strand; 3' TTTTT single-stranded linker to array surface; dsDNA, one strand shown
In all, about 39,000 sequences were measured (“fluorescence intensity (a.u.)”: median about 4,300, highest 2% from about 39,000 on). This excerpt belongs to a sample that is enriched for the highest values.

Check out these entries, answers already filled in.
[
  {
    "CHAIN_SEQUENCE": "ATTAGTTTTATTAAATCTTACATTGAATATATTTTGATAACGGAGTCACCTAGTGCAG",
    "binding signal": "3390 fluorescence intensity (a.u.)"
  },
  {
    "CHAIN_SEQUENCE": "GCCGATTGCAATTTCGTCATCACTGCGGTTAGGATTACACCGGAGTCACCTAGTGCAG",
    "binding signal": "4340 fluorescence intensity (a.u.)"
  },
  {
    "CHAIN_SEQUENCE": "CTGCACATAATAACGTGGATGAATCTTAAACGTCCATTTACGGAGTCACCTAGTGCAG",
    "binding signal": "47100 fluorescence intensity (a.u.)"
  },
  {
    "CHAIN_SEQUENCE": "AAATAATTTATGAATAAAACTTTTATCTACGTGTTCTTAACGGAGTCACCTAGTGCAG",
    "binding signal": "4110 fluorescence intensity (a.u.)"
  }
]

-- ask I would be grateful if you could share the reported binding signal for ATGGGGTGGATGCGTCAGAATTTACATAGGCACGGAACGTCGGAGTCACCTAGTGCAG .
-- reply 5800 fluorescence intensity (a.u.)

---

Reported binding signal values are given for each entry in this list.
# TGT: OsSMF1 (Oryza sativa, UniProt Q6ZLB0 1-436)
# Sequence: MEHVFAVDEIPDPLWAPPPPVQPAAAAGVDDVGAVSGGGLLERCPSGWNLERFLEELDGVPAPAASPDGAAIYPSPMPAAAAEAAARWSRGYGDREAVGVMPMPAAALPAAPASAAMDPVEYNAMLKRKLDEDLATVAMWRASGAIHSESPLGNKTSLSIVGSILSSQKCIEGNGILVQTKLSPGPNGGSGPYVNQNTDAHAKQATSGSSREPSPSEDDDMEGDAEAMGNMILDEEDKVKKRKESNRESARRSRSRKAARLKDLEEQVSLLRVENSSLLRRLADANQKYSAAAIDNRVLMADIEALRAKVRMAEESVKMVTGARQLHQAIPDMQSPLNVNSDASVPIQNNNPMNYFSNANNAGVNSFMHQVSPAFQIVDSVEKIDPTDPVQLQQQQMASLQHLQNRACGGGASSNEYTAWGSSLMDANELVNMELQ
# TEST_SUMMARY: protein-binding microarray (RPBM); PBS, 2% BSA, 51.3 ng/ul salmon testes DNA, 50 uM zinc acetate, 200 nM TF, 25 C, 1 h; high values mean tight binding
# MEASUREMENT_PARAMETERS: protein: recombinant; tags: N-terminal polyhistidine and DsRed monomer fusion (pET32a); chain copies: 2; label: CyDye5-dUTP incorporated in the synthesized complementary strand; 3' TTTTT single-stranded linker to array surface; dsDNA, one strand shown
Over roughly 39,000 sequences, “fluorescence intensity (a.u.)” has its median near 4,300; the highest 2% begin near 39,000. Shown is part of a subset that was picked to be rich in the highest values.

-- ask I would be grateful if you could share the reported binding signal for TATAAATTAATATGTAGTATATCACTTCATAAGTTTAAATCGGAGTCACCTAGTGCAG .
-- reply 39300 fluorescence intensity (a.u.)

-- ask I would be grateful if you could share the reported binding signal for TTATTATGAAAATATATTTAATTATTGATTTGATGAAACTCGGAGTCACCTAGTGCAG .
-- reply 21300 fluorescence intensity (a.u.)
